Values from paper PMC2582240

Target: A3 AR (Homo sapiens, UniProt P0DMS8)
Sequence (P0DMS8 whole entry): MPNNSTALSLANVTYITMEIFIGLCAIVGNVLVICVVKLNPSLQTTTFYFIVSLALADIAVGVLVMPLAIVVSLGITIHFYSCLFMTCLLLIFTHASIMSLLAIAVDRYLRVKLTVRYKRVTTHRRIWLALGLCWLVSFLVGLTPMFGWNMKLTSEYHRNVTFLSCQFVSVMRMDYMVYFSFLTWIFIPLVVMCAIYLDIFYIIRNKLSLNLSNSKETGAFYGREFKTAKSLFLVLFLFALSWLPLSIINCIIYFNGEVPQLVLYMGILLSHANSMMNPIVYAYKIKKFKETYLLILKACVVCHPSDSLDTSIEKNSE
Assay: cAMP assay (inhibition of forskolin-stimulated adenylyl cyclase) in CHO cells expressing A3 AR
Conditions: cAMP inhibition; mean ± SEM, n = 3
pEC50: −log10 of the molar value.
assayEndpoint: pEC50

1. O=C(O)CCc1ccc(NC(=S)NCCNC(=O)Cc2ccc(NC(=O)Cc3ccc(Nc4ncnc5c4ncn5[C@@H]4O[C@H](CO)[C@@H](O)[C@H]4O)cc3)cc2)cc1 [Compound 4] : 6.85
2. NCCNCCNC(=O)Cc1ccc(NC(=O)Cc2ccc(Nc3ncnc4c3ncn4[C@@H]3O[C@H](CO)[C@@H](O)[C@H]3O)cc2)cc1 [Compound 7] : 7.44
3. NCCNC(=O)Cc1ccc(NC(=O)Cc2ccc(Nc3ncnc4c3ncn4[C@@H]3O[C@H](CO)[C@@H](O)[C@H]3O)cc2)cc1 [Compound 1, reference compound] : 7.00
